system: Escherichia coli TOP10; experiment: shrunken log2 fold change of peptide-encoding DNA abundance (4.5 h post-induction vs induction); higher = less antimicrobial activity (less host growth inhibition); settings: time post-induction: 4.5 h; library: site-saturation at positions 5, 18, 19, 20;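 note: peptides expressed intracellularly from a pBAD plasmid library in pooled LB shake-flask culture, induced with 0.3% L-arabinose, DNA abundance read by NGS, three biological replicates, DESeq2 with apeglm shrinkage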
Readout label: shrunken log2 fold change
Enter the number alone.

Q: For the sequence shown here, `RRIRYRPPRLPRPRPRPIDFPRP` , give the reported shrunken log2 fold change.
A: -0.245

Q: For the sequence shown here, `RRIRLRPPRLPRPRPRPDIVPRP` , give the reported shrunken log2 fold change.
A: -0.0115

Q: For the sequence shown here, `RRIRPRPPRLPRPRPRPCWVPRP` , give the reported shrunken log2 fold change.
A: 0.143

Q: For the sequence shown here, `RRIRKRPPRLPRPRPRPTHLPRP` , give the reported shrunken log2 fold change.
A: 0.149

Q: For the sequence shown here, `RRIRLRPPRLPRPRPRPTDEPRP` , give the reported shrunken log2 fold change.
A: -0.111

Next:
Q: For the sequence shown here, `RRIRGRPPRLPRPRPRPSLEPRP` , give the reported shrunken log2 fold change.
A: 0.827

Q: For the sequence shown here, `RRIRKRPPRLPRPRPRPYIQPRP` , give the reported shrunken log2 fold change.
A: -0.319

Q: For the sequence shown here, `RRIRDRPPRLPRPRPRPGMTPRP` , give the reported shrunken log2 fold change.
A: 0.0654

The reported measurements were obtained from the supplement of paper PMC9112550.
